A collection of compounds and their measured TGI
Test system: SK-MEL-2 melanoma
ASSAY: NCI tumour cell line growth inhibition, 48 h
Where a SMILES comes first, the peptide text is derived from it. Bridges are numbered along the chain shown (N, C = ends). [ ]: non-standard residue; d: D form. The star is where a group is joined. PhAc = O=C(Cc1ccccc1)*

## Task State its TGI on SK-MEL-2 melanoma: O=Cc1ccc(-c2ccc(-c3nc4ccccc4[nH]3)cc2)s1
## Result > 100 µM

## Task Further, for COC(=O)[C@H]1[C@@H](O)[C@@]2(O)c3c(OC)cc(O[C@@H]4O[C@@H]([C@H](O)CO)CO[C@H]4OC)cc3O[C@@]2(c2ccc(OC)cc2)[C@@H]1c1ccccc1 ?
## Result 0.0158 µM

## Task Further, for COc1cccc(NC(=O)C(C)(C)C)c1C=O ?
## Result > 100 µM

## Task Further, for O=C(Cc1ccccc1)N[C@@H]1COC(=O)[C@@H]2CCCN2C(=O)[C@@H]2CCCN2C1=O (PhAc-[dS]-Pro-Pro; ester 1-C) ?
## Result > 100 µM

----------
Test system: LOX IMVI melanoma
ASSAY: NCI tumour cell line growth inhibition, 48 h; in the data active = GI50 below about 0.43 µM; inactive = the rest
Outcomes you can answer with include only these: active, inactive

Past entries and their recorded results:
{"COMPOUND": "O=C1/C=C/[C@@H](O)[C@@H]2C[C@@H](O)C[C@H]2/C=C/CCC[C@H](CCc2ccc(C(F)(F)F)cc2)O1", "LABEL_VALUE": "active"}
{"COMPOUND": "COc1cc(-c2nc(NC(C)=O)sc2-c2ccnc(NCCNS(=O)(=O)c3ccccc3)n2)ccc1Cl", "LABEL_VALUE": "inactive"}
{"COMPOUND": "C=CC(=O)N1C/C(=C\\c2ccccc2)C(=O)/C(=C/c2ccccc2)C1", "LABEL_VALUE": "active"}

## Task Called result for CCN(CC)c1ccc(C2CC(c3cc(OC)c(OC)c(OC)c3)=NN2)cc1 (centres undefined)
## Result inactive

## Task Further, for Cc1nc2ccccn2c1NC(=O)NNC(=S)Nc1ccc(Br)cc1 ?
## Result inactive

## Task Further, for C/C1=C/C(=O)O[C@@H]2C[C@@H](CC[C@H](C)/C=C\C=C\CC1)O[C@@](O)([C@@H]1CSC(=O)N1CO)C2 ?
## Result active

## Task Further, for NCCCCCCCCn1c2c(c3ccccc3c1=O)C(=O)c1ccccc1-2 ?
## Result inactive

----------
Test system: BT-549 breast
ASSAY: NCI tumour cell line growth inhibition, 48 h; in the data active = GI50 below about 0.43 µM; inactive = the rest
Outcomes you can answer with include only these: active, inactive

Past entries and their recorded results:
{"COMPOUND": "CCN(CC)CCCC(C)Nc1cc(-c2ccc(C(F)(F)F)cc2)c(C#N)c2nc3ccccc3n12 (configuration not stated)", "LABEL_VALUE": "inactive"}
{"COMPOUND": "COc1ccc(-c2nsc3c2NC(=O)CC3c2ccc(F)cc2)cc1 (configuration not stated)", "LABEL_VALUE": "inactive"}
{"COMPOUND": "COc1cccc(Cn2c(-c3nonc3N)nc3ccccc32)c1", "LABEL_VALUE": "active"}

## Task Called result for C[C@@H](N)C1CCC(C(=O)Nc2ccncc2)CC1 (some centres not stated)
## Result inactive

## Task Further, for COc1ccccc1/C=C/C(=O)c1c(O)cc2occc2c1OC ?
## Result inactive

## Task Further, for C=C(C)[C@@H]1CC[C@]2(C(N)=O)CC[C@]3(C)[C@H](CC[C@@H]4[C@@]5(C)CC[C@H](O)C(C)(C)[C@@H]5CC[C@]43C)[C@@H]12 ?
## Result inactive

## Task Further, for COc1c2c3ccccc3nc-2n(C)c2ccccc12 ?
## Result inactive

## Task Further, for COc1ccccc1-c1cc(/C=C2\C(=O)Nc3ncc(Br)cc32)cc(Br)c1O ?
## Result inactive

## Task Further, for COC(=O)[C@@]1(Cc2ccccc2)[C@H]2c3cc(C(=O)N4CCCC4)n(Cc4ccc(OC)c(OC)c4)c3C[C@H]2CN1C(=O)c1ccccc1 ?
## Result inactive

## Task Further, for Cc1cc(C(=O)Nc2nc3cccc(Cl)c3n2[C@@H]2CCCCN(C(=O)/C=C/CN(C)C)C2)ccn1 ?
## Result inactive

## Task Further, for COc1ccc(CCN2CCCN3C2=Nc2ccccc2S3(=O)=O)cc1 ?
## Result inactive

## Task Further, for O=Cc1ccc(-c2ccc(-c3nc4ccccc4[nH]3)cc2)s1 ?
## Result inactive
